Molecular target: recombinant IRAK-4 kinase (Homo sapiens, UniProt Q9NWZ3)
Construct: purchased Millipore, USA
Sequence (Q9NWZ3 1-460): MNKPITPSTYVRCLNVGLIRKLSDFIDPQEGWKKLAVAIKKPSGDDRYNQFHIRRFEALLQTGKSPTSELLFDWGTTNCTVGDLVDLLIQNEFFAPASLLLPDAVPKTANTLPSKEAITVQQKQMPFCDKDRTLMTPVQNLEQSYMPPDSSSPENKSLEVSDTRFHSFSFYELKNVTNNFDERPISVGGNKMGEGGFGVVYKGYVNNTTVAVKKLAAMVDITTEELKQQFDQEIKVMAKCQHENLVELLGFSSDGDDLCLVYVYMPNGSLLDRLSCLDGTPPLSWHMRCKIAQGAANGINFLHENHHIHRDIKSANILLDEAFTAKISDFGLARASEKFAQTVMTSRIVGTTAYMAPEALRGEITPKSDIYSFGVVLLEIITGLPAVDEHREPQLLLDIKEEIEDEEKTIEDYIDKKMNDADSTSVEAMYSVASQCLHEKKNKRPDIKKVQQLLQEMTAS
Test: IRAK-4 Biochemical Assay (TR-FRET)
Conditions: 5 ng IRAK-4 kinase, 100 nM Biotin Histone H3, 20 μM ATP, 30 minutes pre-incubation, read-out: IC50 values for IRAK4 activity
Measured IC50, listed per entry.
parameter: IC50

>>> df
                                   molecule  value_observed
0  Cc1cc(-c2ccc(C(=O)Nc3cc4sc(N5CCOCC5)nc4nc3N3CC[C@H](O)C3)s2)ccn1        > 100 nM
1  COc1ccc(-c2nc(C(=O)Nc3cc4oc(N5CCOCC5)nc4nc3N3CCC(O)C3)co2)cn1 (stereo not shown)        > 100 nM
2  O=C(Nc1cc2oc(N3CCOCC3)nc2nc1N1CCCCC1)c1cccc(Cl)n1         < 50 nM
3  COc1ccc(-c2nc(C(=O)Nc3cc4sc(N5CCOCC5)nc4nc3N3CC[C@@H](O)C3)co2)cn1         < 50 nM
4  O=C(Nc1cnc2nc(N3CCOCC3)sc2c1)c1cccc(-c2cn[nH]c2)n1        > 100 nM
5  C[C@H](O)Cn1cc(-c2cccc(C(=O)Nc3cc4sc(N5CCOCC5)nc4nc3C3CC3)n2)cn1         < 50 nM
6  O=C(Nc1cc2sc(N3CCOCC3)nc2nc1N1CCC1)c1cccc(N2CC[C@H](O)C2)n1    50 to 100 nM

Values were extracted from patent US10047104B2.
